target: T1, Recombinant MBP-mutCALR Type 1 fusion protein (human); test: SPR, IgG captured, 1:1 fit, Exp. 2
T1 construct: custom made at Cepter; also called recombinant mutCALR protein
parameter: kon (M⁻¹ s⁻¹)

binder="anti-mutCALR antibody clone 182 (antibody, human IgG1, lambda, N297A, V domains shown, human IgG1 N297A variant of clone 17) VH: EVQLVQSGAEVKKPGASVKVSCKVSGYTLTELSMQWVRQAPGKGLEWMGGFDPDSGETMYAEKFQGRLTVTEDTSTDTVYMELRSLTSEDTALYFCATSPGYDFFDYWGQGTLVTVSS VL: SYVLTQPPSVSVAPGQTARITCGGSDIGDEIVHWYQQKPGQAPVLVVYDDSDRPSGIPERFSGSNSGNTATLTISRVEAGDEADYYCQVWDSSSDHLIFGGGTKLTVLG" parameter=kon reported=5.62e+06
binder="anti-mutCALR antibody clone 66 (antibody, human IgG1, lambda, N297A, V domains shown, human IgG1 N297A variant of clone 6) VH: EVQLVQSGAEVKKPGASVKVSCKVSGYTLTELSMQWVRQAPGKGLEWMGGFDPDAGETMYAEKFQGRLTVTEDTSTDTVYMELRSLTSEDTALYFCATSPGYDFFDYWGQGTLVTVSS VL: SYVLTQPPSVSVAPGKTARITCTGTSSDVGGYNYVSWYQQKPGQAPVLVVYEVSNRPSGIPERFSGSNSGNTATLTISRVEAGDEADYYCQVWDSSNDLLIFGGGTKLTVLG" parameter=kon reported=3.54e+06
binder="anti-mutCALR antibody clone 76 (antibody, human IgG1, lambda, N297A, V domains shown, human IgG1 N297A variant of clone 6) VH: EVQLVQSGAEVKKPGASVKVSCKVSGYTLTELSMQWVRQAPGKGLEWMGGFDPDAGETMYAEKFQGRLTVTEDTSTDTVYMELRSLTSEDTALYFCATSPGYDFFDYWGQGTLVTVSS VL: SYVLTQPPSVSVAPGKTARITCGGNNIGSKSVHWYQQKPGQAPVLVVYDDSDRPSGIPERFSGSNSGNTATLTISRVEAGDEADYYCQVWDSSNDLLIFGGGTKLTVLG" parameter=kon reported=3.16e+06
